# Lookup of reported residual activity keyed by entry
Target: MAPKAPK5 (human) (UniProt Q8IW41)
Sequence (Q8IW41 whole entry, looked up): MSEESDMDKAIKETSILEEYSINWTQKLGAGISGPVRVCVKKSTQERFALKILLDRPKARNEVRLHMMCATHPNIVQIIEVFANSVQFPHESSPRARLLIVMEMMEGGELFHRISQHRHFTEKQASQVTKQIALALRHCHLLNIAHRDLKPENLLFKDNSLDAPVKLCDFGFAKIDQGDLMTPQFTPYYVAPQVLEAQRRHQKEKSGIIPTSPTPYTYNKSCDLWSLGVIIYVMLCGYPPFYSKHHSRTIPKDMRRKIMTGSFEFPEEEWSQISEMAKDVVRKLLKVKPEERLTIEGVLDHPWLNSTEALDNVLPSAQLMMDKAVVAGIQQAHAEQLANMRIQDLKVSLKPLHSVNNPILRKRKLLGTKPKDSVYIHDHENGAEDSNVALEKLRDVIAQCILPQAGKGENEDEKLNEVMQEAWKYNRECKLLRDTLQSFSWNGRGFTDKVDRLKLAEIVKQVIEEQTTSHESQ
Test: radiometric filter-binding kinase assay, Kinase HotSpot
Details: compound 0.5 µM; ATP 10 µM
The answer is to be given in %; state only the numeric part.

Here's what some known entries look like.
O=C1Nc2ccc(Br)cc2/C1=C\c1cc2c([nH]1)CCCC2 = 90.6
COc1ccc2c(c1)/C(=C/c1cnc[nH]1)C(O)=N2 = 95.2
CN(C)CCCn1cc(C2=C(c3c[nH]c4ccccc34)C(=O)NC2=O)c2ccccc21 = 93.7
O=C1c2ccccc2-c2nc3nnnn3nc21 = 66.9
CO[C@@H]1[C@H](N(C)C(=O)c2ccccc2)C[C@H]2O[C@]1(C)n1c3ccccc3c3c4c(c5c6ccccc6n2c5c31)C(=O)NC4 = 92
COc1ccc(S(=O)(=O)N(CCO)c2ccccc2CN(C)C/C=C/c2ccc(Cl)cc2)cc1 = 100

Q: Record lookup: for MAPKAPK5 (human) (UniProt Q8IW41), what residual activity belongs to `CCCCc1c(-c2ccc(OC)cc2)[nH]c2nccnc12` ?
Ans: 95.3

Q: Please answer likewise for `Cc1cccc(-c2nc(C(C)(C)C)[nH]c2-c2ccc3c(c2)OCO3)n1`
Ans: 96.1

Q: Queued: `N#C/C(=C\c1ccc(O)c(O)c1)C(=O)NCc1ccccc1`
Ans: 94.2

Q: // repeat for `COc1ccc(C(=O)Nc2sc3c(c2C(N)=O)CCCC3)cc1OC` and report
Ans: 86.4

Q: Next record, please: `O=C1C(Cl)=C(N2C(=O)CCC2=O)C(=O)c2ccccc21`
Ans: 73.6

The values you see were collected from the kinase profiling compilation of Christmann-Franck et al. (2016).
